- Test system: TALE test backbone, repeat 5 RVD LA (synthetic (Xanthomonas TALE))
- conditionDescription: ELISA
// reported binding signal (normalized ELISA) for each item listed
Output spec: single numeric token, no unit.

Task item: Answer with reported binding signal (normalized ELISA) of TTGACAATCCT (double strand) [CAA target]
Reply: 0.02

Task item: Supply binding signal (normalized ELISA) value. Item: TTGACTATCCT (double strand) [CTA target]
Reply: 0.51

Task item: Please supply the value of reported binding signal (normalized ELISA) for the item TTGACGATCCT (double strand) [CGA target]
Reply: 0

Task item: Return binding signal (normalized ELISA) for the following sequence: TTGACCATCCT (double strand) [CCA target]
Reply: 0.02
